B1: glmS ribozyme (parent)
chain: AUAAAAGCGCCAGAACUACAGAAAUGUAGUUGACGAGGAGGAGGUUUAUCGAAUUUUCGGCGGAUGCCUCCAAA

Variants of: B1
experimental_protocol: self-cleavage kobs at 10000 uM GlcN6P; higher = faster cleavage; RNA array
conditions_used: with glucosamine-6-phosphate
This sample holds only a part of the variants without activity.

{"sequence_input": "AUAAAAGCGCCAGCACUACAGAAAUGUAGUUGACUAGGAGGAGGUUUAUCGAAUUUUCGGCGGAUGCCUCCAAA [A14C G35U]", "unit_text": "s⁻¹", "result_qualifier": "<", "self-cleavage kobs at 10000 uM GlcN6P": "1e-05"}
{"sequence_input": "AUAAAAGCGCCAGAACUACAGAAAUGUAGUUGACGAGGAGUUGGUUUAUCGAAUUUUCGGCGGAUGCCUACAAA [G41U A42U C70A]", "unit_text": "s⁻¹", "result_qualifier": "=", "self-cleavage kobs at 10000 uM GlcN6P": 0.00204}
{"sequence_input": "AUAAAAGCGCCAGAACUACAGAAAUGUAGUUGACGAGGAGGAGGUUUAUCGAAUUUUCGGCUAAUGCCUCCAAA [G62U G63A]", "unit_text": "s⁻¹", "result_qualifier": "<", "self-cleavage kobs at 10000 uM GlcN6P": "1e-05"}
{"sequence_input": "AUAAAAGCGCCAGAACUACAGAAAUGUAGUCGACGAGGAGGAGGUUUAUCGGAUUUUCGGCGGAUGCCUCCAAA [U31C A52G]", "unit_text": "s⁻¹", "result_qualifier": "=", "self-cleavage kobs at 10000 uM GlcN6P": 0.000358}
{"sequence_input": "AUAAAAGCGCUAGGACUACAGAAAUGUAGUUGACGAGGAGGAGGUUUAUCGAAUUUUCGGCGGAUGCCUGCAAA [C11U A14G C70G]", "unit_text": "s⁻¹", "result_qualifier": "=", "self-cleavage kobs at 10000 uM GlcN6P": 0.000165}
{"sequence_input": "AUAAAAGCGCCAGAACUACAGAAAUGUAGUUGACAAGGAGGAGGUUUAUCGAAUUUUCCGCGGAUGCCUCCAAA [G35A G59C]", "unit_text": "s⁻¹", "result_qualifier": "<", "self-cleavage kobs at 10000 uM GlcN6P": "1e-05"}
{"sequence_input": "AUAAAAGCGCCGUAACUACAGAAAUGUAGUUGACGAGGAGGAGGUUUAUCGAAUUUUCGGCGGAUGCCUCCAAA [A12G G13U]", "unit_text": "s⁻¹", "result_qualifier": "=", "self-cleavage kobs at 10000 uM GlcN6P": "8.62e-05"}
{"sequence_input": "AUAAAAGCGCUAGAACUACAGAAAUGUAGUUGACGAGGAGGAGGUUUAUCGAAUUUUCGGCGGAUGCCUCCAAA [C11U]", "unit_text": "s⁻¹", "result_qualifier": "=", "self-cleavage kobs at 10000 uM GlcN6P": 0.00293}
{"sequence_input": "AUAAAAGUGCCAGAACUACAGAAAUGUAGUUGACGAGGAGGAGGUUUAUCGAAUUUUUGGCGGAUGUCCCCAAA [C8U C58U C67U U69C]", "unit_text": "s⁻¹", "result_qualifier": "=", "self-cleavage kobs at 10000 uM GlcN6P": 0.000669}
{"sequence_input": "AUAAAAGCGCCAGAACUACAGAAAUGUAGUUUACGAGGAGGAGGUUUAUCGAAUUUUUGGCGGAUGCCUCCAAA [G32U C58U]", "unit_text": "s⁻¹", "result_qualifier": "=", "self-cleavage kobs at 10000 uM GlcN6P": 0.000655}
{"sequence_input": "AUAAAAGGGCCAGAACUACAGAAAUGUAGUUUACGAGGAGGAAGUUUAUCGAAUUUUCGGCGGAUGCGUCCAAA [C8G G32U G43A C68G]", "unit_text": "s⁻¹", "result_qualifier": "<", "self-cleavage kobs at 10000 uM GlcN6P": "1e-05"}
{"sequence_input": "AUAAAAGCGCCAGAACUACAGAAAUGUAGUUGACGAGGAGGAGAUUUUUCGAAUUUUCGGCGGAUGACUCCAAA [G44A A48U C67A]", "unit_text": "s⁻¹", "result_qualifier": "=", "self-cleavage kobs at 10000 uM GlcN6P": 0.000216}
{"sequence_input": "AUAAAAGCGCCUGAACUACAGAAAUGUAGUUGACGAGGAGGAGGUUUAUCGAAUUUUCGGCGGAUGCUUCCAAA [A12U C68U]", "unit_text": "s⁻¹", "result_qualifier": "=", "self-cleavage kobs at 10000 uM GlcN6P": 0.00957}
{"sequence_input": "AUAAAAGCGCCAGAACUACAGAAAUGUAGUUGACUAGGAGGAGGUUUUUCGAAUUUUCGGCGGAUGCCUCCAAA [G35U A48U]", "unit_text": "s⁻¹", "result_qualifier": "<", "self-cleavage kobs at 10000 uM GlcN6P": "1e-05"}
{"sequence_input": "AUAAAACCGCUAGAACUACAGAAAUGUAGUUGACGAGGAUGAGGUUUAUCGAAUUUUCGGCGGAUGCCUCAAAA [G7C C11U G40U C71A]", "unit_text": "s⁻¹", "result_qualifier": "<", "self-cleavage kobs at 10000 uM GlcN6P": "1e-05"}
{"sequence_input": "AUAAAAGCGCCAGAACUACAGAAAUGUAGUUGGCGAGGUGGAGGUUUACCGAAUUUUCGGCGGAUGCGUCCAAA [A33G A39U U49C C68G]", "unit_text": "s⁻¹", "result_qualifier": "<", "self-cleavage kobs at 10000 uM GlcN6P": "1e-05"}
{"sequence_input": "AUAAAAUCGCCAGAACUACAGAAAUGUAGUUGACGAGGAGGAGGUUUAUCGAAAUUUCGGCGGAUGCCUCCAAA [G7U U54A]", "unit_text": "s⁻¹", "result_qualifier": "<", "self-cleavage kobs at 10000 uM GlcN6P": "1e-05"}
{"sequence_input": "AUAAAAGCGCUAGAACUACAGAAAUGUAGUUGACGAGGAGGAGGUUUAUGGAAUUUUCGGCGGAUGCCUGCAAA [C11U C50G C70G]", "unit_text": "s⁻¹", "result_qualifier": "=", "self-cleavage kobs at 10000 uM GlcN6P": "3.88e-05"}
{"sequence_input": "AUAAAAGCGCCAGAACUACAGAAAUGUAGUUGACGAGGAGGAGGUUUAUCGAACUUUCGGCGGAUGCCUCAAAA [U54C C71A]", "unit_text": "s⁻¹", "result_qualifier": "=", "self-cleavage kobs at 10000 uM GlcN6P": 0.0039}
{"sequence_input": "AUAAAAGCGCCAGAACUACAGAAAUGUAACUGACGAGGAGGAGGUUUAUCGAAUUUUCGGCGGAUGCCUCCAAA [G29A U30C]", "unit_text": "s⁻¹", "result_qualifier": "=", "self-cleavage kobs at 10000 uM GlcN6P": "2.58e-05"}
{"sequence_input": "AUAAAAGCGCCGGUACUACAGAAAUGUAGUUUACGAGGAGGAGGUUUAUCGAAUUUUCGACGGAUUCCUCCAAA [A12G A14U G32U G60A G66U]", "unit_text": "s⁻¹", "result_qualifier": "<", "self-cleavage kobs at 10000 uM GlcN6P": "1e-05"}
{"sequence_input": "AUAAAAGAGCCAGAACUACAGAAAUGUAUUUGACGAGGAGGAGGUUUAUCGUAUAUUCGGCGGAUGCCUCGAAA [C8A G29U A52U U55A C71G]", "unit_text": "s⁻¹", "result_qualifier": "<", "self-cleavage kobs at 10000 uM GlcN6P": "1e-05"}
{"sequence_input": "AUAAAAGCGCCAGAACUACAGAAAUGUAGUUGACGAGGAGGAGAUUUAUCGAAUUUUCGGCGGAUACCUCCAAA [G44A G66A]", "unit_text": "s⁻¹", "result_qualifier": "=", "self-cleavage kobs at 10000 uM GlcN6P": 0.000527}
{"sequence_input": "AUAAAAGCGCCAGAAUUACAGAAAUGUAGCUGACGAGGAGGAGGUUUAUCGAAUUUUCGGCGGAUGCCUCCAAA [C16U U30C]", "unit_text": "s⁻¹", "result_qualifier": "=", "self-cleavage kobs at 10000 uM GlcN6P": "8.45e-05"}
{"sequence_input": "AUAAAAGCGCCAGAACUACAGAAAUGUAGUUGCCGAGGAGGAGGUUUAUCGAAUUUUCCGCGGGUACCUACAAA [A33C G59C A64G G66A C70A]", "unit_text": "s⁻¹", "result_qualifier": "<", "self-cleavage kobs at 10000 uM GlcN6P": "1e-05"}
{"sequence_input": "AUAAAAGCUCCAGAACUACAGAAAUGUAGUUCAGGAGGAGGAGGUUUAUCGAAGUUUCGGCGGUUGCCUCAAAA [G9U G32C C34G U54G A64U C71A]", "unit_text": "s⁻¹", "result_qualifier": "<", "self-cleavage kobs at 10000 uM GlcN6P": "1e-05"}
{"sequence_input": "AUAAAAGCGCUAGUACUACAGAAAUGUAGUUGACGAGGAGGAGGUUUAUCGAAUUUUCGGCGGAUGCCUCCAAA [C11U A14U]", "unit_text": "s⁻¹", "result_qualifier": "=", "self-cleavage kobs at 10000 uM GlcN6P": 0.000984}
{"sequence_input": "AUAAAAGCGCCUGAACUACAGAAAUGUAGUUGACGAGGAGGAGGUUUAUCGAAUUUUCGUCGGAUGCCUCCAAA [A12U G60U]", "unit_text": "s⁻¹", "result_qualifier": "<", "self-cleavage kobs at 10000 uM GlcN6P": "1e-05"}
{"sequence_input": "AUAAAAUCGCCAGAACUACAGAAAUGUAGCUAACGAGGAGGAGGUUUAUCGAAUUUUCGGCGGAUGCCUCCAAA [G7U U30C G32A]", "unit_text": "s⁻¹", "result_qualifier": "<", "self-cleavage kobs at 10000 uM GlcN6P": "1e-05"}
{"sequence_input": "AUAAAAGCGCCAGAAUUACAGAAAUGUAGUUGACGAGGAGGAGGUUUAUCGAAUGUUCGGCGGAUGCUUCCAAA [C16U U55G C68U]", "unit_text": "s⁻¹", "result_qualifier": "=", "self-cleavage kobs at 10000 uM GlcN6P": 0.00354}
{"sequence_input": "AUAAAAGCGCCAGAACUACAGAAAUGUAGUUGACGAGGAUGAGGUCUAUCGAAUUUUCGGCGGAUGCCUCCAAA [G40U U46C]", "unit_text": "s⁻¹", "result_qualifier": "=", "self-cleavage kobs at 10000 uM GlcN6P": 0.00137}
{"sequence_input": "AUAAAAGCGCCAGAACUACAGAAAUGUAGUUGACGAGGAGGAGGAUUAUCGAAUUGUCGGCGGAUGCCUCCAAA [U45A U56G]", "unit_text": "s⁻¹", "result_qualifier": "=", "self-cleavage kobs at 10000 uM GlcN6P": 0.0457}
{"sequence_input": "AUAAAAGCGCCAAAACUACAGAAAUGUAGGUGACGAGGAGGAGGUUUAUCGAAUUUUCGGCGGAUGCCUCCAAA [G13A U30G]", "unit_text": "s⁻¹", "result_qualifier": "=", "self-cleavage kobs at 10000 uM GlcN6P": 0.000271}
{"sequence_input": "AUAAAAGCGCCAGAACUAAAGAAAUGUAGUUGACCAGGAGGAGGUUCAGCUAAUUUUCGGCGGAUGCUUCUAAA [C19A G35C U47C U49G G51U C68U C71U]", "unit_text": "s⁻¹", "result_qualifier": "<", "self-cleavage kobs at 10000 uM GlcN6P": "1e-05"}
{"sequence_input": "AUAAAAGCGCCAGAACUACAGAAAUGUAGUUGACGAGGAGGAGAUUUAUCGAAAUUUCGGCGGAUGCCUCCAAA [G44A U54A]", "unit_text": "s⁻¹", "result_qualifier": "=", "self-cleavage kobs at 10000 uM GlcN6P": 0.000538}
{"sequence_input": "AUAAAAGCGCCAGUACUACAGAAAUGUAGUUGACAAGGAGGAGGUUUGUCGAACUUUCGGCGGAUGCCUGCAAA [A14U G35A A48G U54C C70G]", "unit_text": "s⁻¹", "result_qualifier": "<", "self-cleavage kobs at 10000 uM GlcN6P": "1e-05"}
{"sequence_input": "AUAAAAGCGCCAGAACUACAGAAAUGUAGUUGAAGAGGAGCAGGUUUAUCGAAUUUUCGGCGGAUGCCUCCAAA [C34A G41C]", "unit_text": "s⁻¹", "result_qualifier": "<", "self-cleavage kobs at 10000 uM GlcN6P": "1e-05"}
{"sequence_input": "AUAAAAGCGCCAGAACUACAGAAAUGUAGUUGACGAGGAGGAGGUUUAUCUCAUUUUCGGCGGAUGCCUCCAAA [G51U A52C]", "unit_text": "s⁻¹", "result_qualifier": "<", "self-cleavage kobs at 10000 uM GlcN6P": "1e-05"}
{"sequence_input": "AUAAAAGCGCCAGAACUACAGAAAUGUAGUUAACGAGGAGGAGGUUUAUCGAAUUUUCGGCGGAUUCCUCCAAA [G32A G66U]", "unit_text": "s⁻¹", "result_qualifier": "=", "self-cleavage kobs at 10000 uM GlcN6P": 0.000118}
{"sequence_input": "AUAAAAGCGCCAAAACUACAGAAAUGUAGUUGACGAGGAGGAGGUUUAUGGAAUUUUCGGCGGAUGCGUCCAAA [G13A C50G C68G]", "unit_text": "s⁻¹", "result_qualifier": "=", "self-cleavage kobs at 10000 uM GlcN6P": "9.04e-05"}

Where do the numbers come from? From the supplement of paper PMC7125110.
